# Tgt: HLA-A*02:01 (Homo sapiens, UniProt P04439, D140Y/D185E/D98H/E176V/E277Q/G131W/G231S/I119V/I121R/I166T/I218V/L300P/L318F/N151K/N90K/P208A/P217A/Q86G/Q94H/R138H/R169H/T345S)
# Assay Name: MHC binding assay: UV-ligand exchange with beta2m ELISA (exchange yield)
# Conditions Used: binding to HLA-A*02:01, β2m ELISA
Endpoint Label: Peptide exchange (MHC class I binding score, peptide exchange yield)

| Substance | Reported Result |
| --- | --- |
| 374 (FLLQQHLISA; listed as Homo sapiens) [compound 374] | “++” (≥20% = ++) |
| 32 (KLDDLTQDLTV; listed as Homo sapiens) [compound 32] | “++” (≥20% = ++) |
| 548 (ALWENPESGEL; listed as Homo sapiens) [compound 548] | “++” (≥20% = ++) |
| 447 (QLVPALAKV; listed as Homo sapiens) [compound 447] | “++” (≥20% = ++) |
| 498 (KLWTGGLDNTV; listed as Homo sapiens) [compound 498] | “+++” (≥50 = +++) |
| 167 (KVLEVTEEFGV; listed as Homo sapiens) [compound 167] | “+++” (≥50 = +++) |
| 485 (NVPDSFNEV; listed as Homo sapiens) [compound 485] | “+++” (≥50 = +++) |
| 596 (ALLDQTKTLAESAL; listed as Homo sapiens) [compound 596] | “+++” (≥50 = +++) |
| 336 (ILLTAIVQV; listed as Homo sapiens) [compound 336] | “+++” (≥50 = +++) |
